B1: library; numbered along this chain (parent)
chain: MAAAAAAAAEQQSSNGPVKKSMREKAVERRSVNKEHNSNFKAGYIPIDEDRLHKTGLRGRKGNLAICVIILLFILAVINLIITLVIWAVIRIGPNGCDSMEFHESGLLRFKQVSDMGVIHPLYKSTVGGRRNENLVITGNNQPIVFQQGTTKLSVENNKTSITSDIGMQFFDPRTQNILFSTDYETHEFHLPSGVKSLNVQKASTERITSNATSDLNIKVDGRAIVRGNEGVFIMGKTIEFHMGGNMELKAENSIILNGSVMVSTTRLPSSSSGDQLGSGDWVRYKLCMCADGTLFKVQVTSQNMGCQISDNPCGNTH

variants of: B1; test: SGCB cell-surface expression functional score (HA stain, bin4 vs bin1, normalised to synonymous) (log10 ratio); higher = more cell-surface SGCB (functional)
Attribute: SGCB cell-surface expression functional score (log10)
quantity name: SGCB cell-surface expression functional score (log10)

variant name | result
T138N | 0.54
C314L | -0.5
A212E | 0.91
A7V | 0.16
I86W | -2.19
C67R | 0.08
S302M | -1.5
D292V | -0.08
T205W | -2.65
G59D | 0.04
A212P | -0.25
G43Y | -0.59
L80T | 0.42
V226Q | -0.68
K202G | -0.02
S279Y | 0.05
G244K | 0.23
E230S | 0.75
Q147P | -0.68
M235V | 0.18
C97Q | -1.14
L108C | 0.01
M100F | -0.46
G96L | -2.08
G56S | 0.21
V27H | 0.05
H242S | 0.93
K250D | 0.83
R267H | 0.05
I178W | -1.15
G222Q | 0.85
K202M | 0.2
P143M | 0.69
N253D | 0.58
T213G | 0.65
A8F | -0.02
G245T | 0.57
L84G | 0.24
W87H | -0.27
I234E | -1.49
Y123R | -0.37
M116G | -1.48
L179Y | -0.54
I82C | 0.11
K250W | 0.02
M116T | -0.8
